- STUDY_SYSTEM: Phosphatidylinositol 4,5-bisphosphate 3-kinase catalytic subunit alpha isoform (Homo sapiens)
- Sequence (P42336 whole entry, canonical isoform): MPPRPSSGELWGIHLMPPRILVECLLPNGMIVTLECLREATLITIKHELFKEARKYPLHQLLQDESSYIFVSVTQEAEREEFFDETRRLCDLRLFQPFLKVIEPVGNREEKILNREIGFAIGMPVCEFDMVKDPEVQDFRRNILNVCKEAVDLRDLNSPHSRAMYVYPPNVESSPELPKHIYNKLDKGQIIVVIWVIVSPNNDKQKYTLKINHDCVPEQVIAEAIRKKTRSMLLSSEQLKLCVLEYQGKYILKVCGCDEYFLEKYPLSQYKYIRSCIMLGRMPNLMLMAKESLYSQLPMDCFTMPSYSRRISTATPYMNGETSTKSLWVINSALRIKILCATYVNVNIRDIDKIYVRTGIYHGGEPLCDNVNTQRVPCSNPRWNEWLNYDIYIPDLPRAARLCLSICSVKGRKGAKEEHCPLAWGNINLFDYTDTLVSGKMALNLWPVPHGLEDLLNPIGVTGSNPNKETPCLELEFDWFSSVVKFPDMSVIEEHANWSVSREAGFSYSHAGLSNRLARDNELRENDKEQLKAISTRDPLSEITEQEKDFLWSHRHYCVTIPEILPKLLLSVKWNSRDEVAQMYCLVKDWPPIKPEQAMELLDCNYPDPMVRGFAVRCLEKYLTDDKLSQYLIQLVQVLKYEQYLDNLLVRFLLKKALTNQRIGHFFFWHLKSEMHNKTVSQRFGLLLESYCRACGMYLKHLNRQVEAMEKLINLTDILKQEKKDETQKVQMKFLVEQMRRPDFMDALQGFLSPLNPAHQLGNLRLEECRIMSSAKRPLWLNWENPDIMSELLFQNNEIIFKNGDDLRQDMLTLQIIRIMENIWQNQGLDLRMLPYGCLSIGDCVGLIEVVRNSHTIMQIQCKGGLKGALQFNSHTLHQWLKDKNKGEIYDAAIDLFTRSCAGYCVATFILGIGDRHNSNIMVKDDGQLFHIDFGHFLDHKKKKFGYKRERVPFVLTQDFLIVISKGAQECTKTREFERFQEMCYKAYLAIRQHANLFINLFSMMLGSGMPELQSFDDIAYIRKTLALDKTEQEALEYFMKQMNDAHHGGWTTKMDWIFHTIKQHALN
- EXPERIMENTAL_DETAILS: Inhibition of human PI3Kalpha preincubated for 15 mins followed by ATP addition measured after 1 hr by TR-FRET assay
pIC50: −log10 of the molar value.
Listing of recorded pIC50 by entry.
MEASURED_QUANTITY: pIC50

CC(=O)N1CCC(n2nc(-c3cc4c(Cl)ccc(O)c4[nH]3)c3c(N)ncnc32)CC1 [US10172858, Table 2.69] :: < 6.30
Nc1ncnc2c1c(-c1cc3cc(O)ccc3[nH]1)nn2C1CCOCC1 [US10172858, Table 2.42] :: < 6.30
Nc1ncnc2c1c(-c1cc3cccc(O)c3[nH]1)nn2C1CCOCC1 [US10172858, Table 2.62] :: < 6.30

---

Listing of recorded pIC50 by entry.
- STUDY_SYSTEM: Phosphatidylinositol 4,5-bisphosphate 3-kinase catalytic subunit gamma isoform (Homo sapiens)
- Sequence (P48736 whole entry, canonical isoform): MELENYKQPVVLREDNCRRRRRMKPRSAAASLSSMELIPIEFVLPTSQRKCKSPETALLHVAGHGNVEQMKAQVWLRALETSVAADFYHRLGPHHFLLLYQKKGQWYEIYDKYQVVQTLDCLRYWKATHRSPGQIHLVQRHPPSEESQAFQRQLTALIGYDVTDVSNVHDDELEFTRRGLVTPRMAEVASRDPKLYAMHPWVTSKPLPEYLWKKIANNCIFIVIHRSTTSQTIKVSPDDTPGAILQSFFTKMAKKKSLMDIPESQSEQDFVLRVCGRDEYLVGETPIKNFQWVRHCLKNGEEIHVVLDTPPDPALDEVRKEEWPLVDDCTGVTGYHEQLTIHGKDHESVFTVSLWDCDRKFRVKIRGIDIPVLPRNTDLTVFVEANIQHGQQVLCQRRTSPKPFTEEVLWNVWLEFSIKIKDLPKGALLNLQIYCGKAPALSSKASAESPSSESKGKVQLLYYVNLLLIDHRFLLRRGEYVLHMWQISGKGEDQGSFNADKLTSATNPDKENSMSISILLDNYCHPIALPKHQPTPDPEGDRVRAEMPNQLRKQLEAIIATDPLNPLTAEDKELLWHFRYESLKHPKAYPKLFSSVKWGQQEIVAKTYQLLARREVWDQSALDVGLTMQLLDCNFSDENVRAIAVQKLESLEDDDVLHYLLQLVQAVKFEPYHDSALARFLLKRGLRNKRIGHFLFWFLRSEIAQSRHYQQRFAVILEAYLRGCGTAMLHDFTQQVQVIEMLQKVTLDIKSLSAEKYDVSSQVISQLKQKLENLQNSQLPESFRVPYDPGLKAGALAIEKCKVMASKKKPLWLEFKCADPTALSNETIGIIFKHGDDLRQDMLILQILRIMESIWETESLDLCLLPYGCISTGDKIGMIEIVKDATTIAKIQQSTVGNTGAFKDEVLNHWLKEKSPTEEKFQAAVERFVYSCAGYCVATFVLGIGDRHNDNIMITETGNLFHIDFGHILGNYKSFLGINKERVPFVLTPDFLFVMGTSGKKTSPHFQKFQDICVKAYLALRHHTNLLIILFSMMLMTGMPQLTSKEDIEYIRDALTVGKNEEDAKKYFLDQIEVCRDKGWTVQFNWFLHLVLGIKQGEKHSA
- EXPERIMENTAL_DETAILS: Inhibition of human PI3Kgamma preincubated for 15 mins followed by ATP addition measured after 1 hr by TR-FRET assay
pIC50: −log10 of the molar value.
MEASURED_QUANTITY: pIC50

Nc1ncnc2c1c(-c1cc3cccc(O)c3[nH]1)nn2C1CCOCC1 :: < 6.30
CC(=O)N1CCC(n2nc(-c3cc4c(Cl)ccc(O)c4[nH]3)c3c(N)ncnc32)CC1 :: < 6.30

Cited source for all entries: BindingDB's records for PubMed 35688004
